Experiment: Plasma and tissue distribution in SD rats
Format: in vivo
Conditions: Sprague-Dawley, epididymis and testis; male SD rat, PO 10 mg/kg, Epididymis & Testis
Measured property: Tmax (h)
Record the value in h, omitting the unit from your answer.

Prompt: For the compound C[C@@H](c1ccc(Nc2cc(Nc3ncccc3S(C)(=O)=O)ncn2)nc1)N1CC2(COC2)C1 , give its measured Tmax value.
Response: 8

----------
Experiment: Plasma and tissue distribution in SD rats
Type: in vivo
Conditions: female, SD, rat, fat, po, 10 mg/kg, female SD rat, PO 10 mg/kg, Fat; Tissue AUC0-last/Plasma AUC0-last; read-out: AUC Ratio
Measured property: Kp

Prompt: // fetch Kp given entry C[C@@H](c1ccc(Nc2cc(Nc3ncccc3S(C)(=O)=O)ncn2)nc1)N1CC2(COC2)C1
Response: 0.506
